# measurement target: hGLP-1R (Homo sapiens, UniProt P43220)
# Sequence (P43220 24-463): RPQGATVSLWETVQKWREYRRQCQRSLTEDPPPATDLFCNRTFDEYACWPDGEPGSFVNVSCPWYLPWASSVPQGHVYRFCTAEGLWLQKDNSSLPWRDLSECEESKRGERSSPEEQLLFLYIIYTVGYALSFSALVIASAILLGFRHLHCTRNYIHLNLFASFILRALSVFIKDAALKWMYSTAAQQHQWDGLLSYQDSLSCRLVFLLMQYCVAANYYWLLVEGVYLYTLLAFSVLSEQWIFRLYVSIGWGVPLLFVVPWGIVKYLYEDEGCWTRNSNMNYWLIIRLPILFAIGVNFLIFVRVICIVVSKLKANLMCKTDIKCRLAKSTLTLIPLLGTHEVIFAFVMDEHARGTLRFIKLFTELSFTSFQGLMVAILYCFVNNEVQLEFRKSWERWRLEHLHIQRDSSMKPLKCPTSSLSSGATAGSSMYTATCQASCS
# test details: cell-based or functional assay
Classify: y when Relative cAMP EC50 is strictly less than 1 nM; n when Relative cAMP EC50 is not.

Please review the following examples before continuing.
Is 1 nM strictly greater than the binder's reported Relative cAMP EC50? binder: YXQGTFTSDFSQXLDKKAQXAFIEYLIAGGPSSGAPPPSGS (not fully specified; synthetic construct; SITE 2: note = 2-Aminoisobutyric Acid; SITE 13: note = alpha-methyl-leucine; SITE 17: note = Lysine is chemically modified through conjugation of the epsilon-amino group of the Lysine side chain with (gamma-Glu)2-CO-(CH2)16-CO2H; SITE 20: note = 3-(4-Pyridyl)-L-alanine; SITE 41:) [Example 876]
y

Below 1 nM on Relative cAMP EC50? Entry YXQGTXTSDXXIXLDXKAAXEFIEXLIEGGPSSGAPPPSGSEE (synthetic construct; SITE 2: note = 2-Aminoisobutyric Acid; SITE 6: note = alpha-methyl-2-fluoro-L-phenylalanine; SITE 10: note = 3-(4-Pyridyl)-L-alanine; SITE 11: note = alpha-methyl-L-serine; SITE 13: note = alpha-methyl-leucine; SITE 16: note = L-ornithine; SITE 17: note = Lysine is chemically mo) [Example 704]
y

Others:
Lab note: confirm whether the reported Relative cAMP EC50 for this binder is below 1 nM, equality not counting. binder: YXQGTXTSDXXIXLDXKAAXEFIEXLIEGGPSSGAPPPSGEEE (synthetic construct; SITE 2: note = 2-Aminoisobutyric Acid; SITE 6: note = alpha-methyl-2-fluoro-L-phenylalanine; SITE 10: note = 3-(4-Pyridyl)-L-alanine; SITE 11: note = alpha-methyl-L-serine; SITE 13: note = alpha-methyl-leucine; SITE 16: note = L-ornithine; SITE 17: note = Lysine is chemically mo) [Example 705]
y

Check if Relative cAMP EC50 falls below 1 nM for YXQGTFTSDXSRXLDKKAQXAFIEYLIAGGPSSGAPPPSGSEE (synthetic construct; SITE 2: note = 2-Aminoisobutyric Acid; SITE 10: note = 3-(4-Pyridyl)-L-alanine; SITE 13: note = alpha-methyl-leucine; SITE 17: note = Lysine is chemically modified through conjugation of the epsilon-amino group of the Lysine side chain with (gamma-Glu)2-CO-(CH2)16-CO2H; SITE 20:) [Example 962] .
n
